target: gEgI WT: HSV2 gEgI heterodimer comprising gE and gI wildtype ectodomains (HSV2, UniProt P89475 21-416; P06764 21-256); test: SPR binning; gEgI captured by mAb 17

BINDER	RU / RU
mAb clone 40 (antibody, V domains shown) VH: QIQLVQSGPELKKPGETVKISCKASGYTFTNYGMNWVKQAPGKGLKWMGWINTYTGEPTYADDFKGRFAFSLETSASTAYLQINNLKNEDTATYFCARSLYGYDEGYFDVWGAGTTVTVSS VL: DIQMTQSPASLSASVGETVTITCRASGNIHNYLAWYQQKQGKSPQLLVYNAKTLADGVPSRFSGSGSGTQYSLKINSLQPEDFGSYYCQHFWSTPYTFGGGTKLEIK	8.8
mAb clone 15 (antibody, V domains shown) VH: QVQLKESGPGLVAPSQSLSITCTVSGFSLTSYGVSWVRQPPGKGLEWLGVIWGDGSTNYHSALISRLSISKDNSKSQVFLKLNSLQTDDTATYYCAKPDLYYDSPYAMDYWGQGTSVTVSS VL: DIQMTQSPASLSASVGETVTITCRASGNIHNYLAWYQQKQGKSPQLLVYNAKTLADGVPSRFSGSGSGTQYSLKINSLQPEDFGSYYCQHFWSTPWTFGGGTKLEIK	3.4
mAb clone 19 (antibody, V domains shown) VH: QVQLQQSGAELVRPGVSVKISCKGSGYTFTDYAMHWVKQSHAKSLEWIGVISTYYGDARYNQKFKGKATMTVDKSSSTAYMELARLTSEDSAIYYCARRGITVVADYAMDYWGQGTSVTVSS VL: QIVLTQSPAIMSASPGEKVTMSCSASSSVTYMHWYQQKSGTSPKRWIYDTSKLASGVPARFSGSGSGTSYSLTISSMEAEDAATYYCQQWSSNPPTFGGGTKLEIK	18.1
